- SYSTEM_NAME: UniProt P33261
- Sequence (P33261 whole entry): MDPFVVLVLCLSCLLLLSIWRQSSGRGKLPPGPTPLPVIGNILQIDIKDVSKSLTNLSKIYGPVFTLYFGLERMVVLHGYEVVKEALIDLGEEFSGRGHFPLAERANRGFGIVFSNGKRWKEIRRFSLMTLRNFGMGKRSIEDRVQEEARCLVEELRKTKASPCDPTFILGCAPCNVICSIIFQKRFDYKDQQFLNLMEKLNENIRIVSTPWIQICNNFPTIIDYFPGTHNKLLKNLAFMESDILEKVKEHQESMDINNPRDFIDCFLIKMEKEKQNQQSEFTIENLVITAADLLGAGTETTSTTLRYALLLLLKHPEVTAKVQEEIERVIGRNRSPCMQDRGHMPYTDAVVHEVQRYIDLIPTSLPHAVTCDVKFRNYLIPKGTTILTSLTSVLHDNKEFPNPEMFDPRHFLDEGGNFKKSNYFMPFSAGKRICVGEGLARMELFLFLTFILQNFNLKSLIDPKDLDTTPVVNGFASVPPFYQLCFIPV
- METHOD_NOTES: Cytochrome panel assay with activity outcomes. Panel member name: p450-cyp2c19 Compounds with AC50 equal or less than 10 uM are considered active
- Assay type: functional
- PROTOCOL_CONDITIONS: read-out: AC50
This section presents compounds with their documented AC50 values.
READOUT_NAME: AC50

1. Cc1ccc(S(=O)(=O)N/N=C/c2cccn2-c2ccc(Cl)cc2)cc1: 0.0501 µM (inconclusive)
2. O=C(c1csnn1)N1CCC2(CC1)CN(C(c1ccccc1)c1ccccc1)C2: 0.00631 µM (inconclusive)
3. CCCc1cc2c(=O)c(-c3ccc4c(c3)OCCO4)coc2cc1OC(=O)c1ccco1: 2.51 µM (inconclusive)
4. O=C(O)/C=C/C(=O)Nc1ccc(F)cc1F: 39.8 µM (inconclusive)
5. CCCNC(=O)c1cc2c(C(F)(F)F)nn(C)c2s1: 31.6 µM (inconclusive)
6. OCCN1CCN(c2nc(N3CCCCC3)nc(N3CCCCC3)n2)CC1: 39.8 µM (inconclusive)
7. COc1nccc(-c2c(-c3ccc(F)cc3)ncn2C2CCC(O)CC2)n1 (stereo not given): 7.94 µM (inconclusive)
8. C/C(=N\OC(=O)c1cccc(C)c1)c1sc(-c2ccccc2)nc1C: 8.91 µM (inconclusive)
9. O=C(NCC1CCCO1)C1CCC(=O)N1CCc1ccccc1 (stereo not given): 7.08 µM (inconclusive)
10. Cc1nc2cncnc2n(Cc2ccc(F)cc2)c1=O: 39.8 µM (inconclusive)

###

- SYSTEM_NAME: Cytochrome P450 1A2 (Homo sapiens, UniProt P05177);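 further: PubChem cytochrome P450 panel assay, CYP1A2 panel member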
- Sequence (P05177 whole entry): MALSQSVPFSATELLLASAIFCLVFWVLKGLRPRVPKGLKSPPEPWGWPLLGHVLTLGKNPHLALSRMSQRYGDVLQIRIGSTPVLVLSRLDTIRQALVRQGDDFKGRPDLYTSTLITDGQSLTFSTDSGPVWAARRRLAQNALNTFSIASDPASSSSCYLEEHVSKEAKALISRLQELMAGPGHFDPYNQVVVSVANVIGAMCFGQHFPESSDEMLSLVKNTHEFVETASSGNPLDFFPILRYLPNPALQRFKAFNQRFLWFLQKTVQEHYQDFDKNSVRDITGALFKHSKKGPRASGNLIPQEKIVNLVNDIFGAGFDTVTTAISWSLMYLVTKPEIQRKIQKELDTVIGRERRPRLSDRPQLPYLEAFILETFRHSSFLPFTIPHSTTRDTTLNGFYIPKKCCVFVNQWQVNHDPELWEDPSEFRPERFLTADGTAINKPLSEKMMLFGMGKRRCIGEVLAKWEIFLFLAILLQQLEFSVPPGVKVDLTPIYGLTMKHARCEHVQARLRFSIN
READOUT_NAME: AC50

1. COc1ccc(C2C(C(=O)N3CCOCC3)CCC(=O)N2c2ccc(OC)cc2)cc1 (stereo not given): 0.0631 µM (inconclusive)
2. Cc1ccc(S(=O)(=O)N/N=C/c2cccn2-c2ccc(Cl)cc2)cc1: 12.6 µM (inconclusive)
3. O=C(Nc1ccccc1-c1nc2ccccc2[nH]1)c1ccc(S(=O)(=O)N2CCCCC2)cc1: 3.55 µM (inconclusive)
4. CCCc1cc2c(=O)c(-c3ccc4c(c3)OCCO4)coc2cc1OC(=O)c1ccco1: 2 µM (inconclusive)
5. CN1CCN(c2ncc3nc(-c4cc(F)cc(F)c4)c(=O)n(C)c3n2)CC1: 5.01 µM (inconclusive)

###

- SYSTEM_NAME: UniProt:P11940
- Sequence (P11940 whole entry): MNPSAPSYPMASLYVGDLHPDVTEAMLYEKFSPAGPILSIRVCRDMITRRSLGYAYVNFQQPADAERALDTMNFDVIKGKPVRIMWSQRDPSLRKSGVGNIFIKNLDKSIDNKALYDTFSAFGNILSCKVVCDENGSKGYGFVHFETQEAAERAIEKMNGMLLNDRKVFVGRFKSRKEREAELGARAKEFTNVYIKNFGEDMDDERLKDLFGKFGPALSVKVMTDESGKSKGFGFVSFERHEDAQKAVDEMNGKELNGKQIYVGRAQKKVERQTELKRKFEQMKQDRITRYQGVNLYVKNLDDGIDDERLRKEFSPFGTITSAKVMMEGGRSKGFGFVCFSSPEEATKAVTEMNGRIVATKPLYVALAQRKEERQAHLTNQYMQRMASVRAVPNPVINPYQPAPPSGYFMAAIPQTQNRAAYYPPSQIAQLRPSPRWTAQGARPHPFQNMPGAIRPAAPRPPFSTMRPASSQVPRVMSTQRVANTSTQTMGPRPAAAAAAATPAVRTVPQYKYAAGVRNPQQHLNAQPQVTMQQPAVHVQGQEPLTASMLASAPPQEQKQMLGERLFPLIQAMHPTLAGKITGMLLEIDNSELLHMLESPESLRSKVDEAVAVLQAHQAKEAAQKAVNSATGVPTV
- METHOD_NOTES: PABP1 MLLE–PAM2 binding inhibitor potency, dose response, biochemical, fluorescence polarization, FITC-PAM2 peptide (AID 602259)
- Assay type: functional
- PROTOCOL_CONDITIONS: read-out: IC50_Mean
The source made the active and inactive calls.
READOUT_NAME: IC50

1. CN1CCN(C(=S)NC(=O)c2ccc(S(=O)(=O)N3CCOCC3)cc2)CC1: > 66 µM (inactive)
2. CC(C)(C)OC(=O)NC(Cc1ccccc1)C(=O)N1CCC(C(=O)NCC(=O)Nc2ccc(F)cc2)CC1 (stereo not drawn): 28.7 µM (inactive)
3. COc1ccc(Sc2nnc(Cc3ccccc3)c3ccccc23)cc1: > 66 µM (inactive)
4. CCN1CCN(C(c2ccc(C(F)(F)F)cc2)c2ccc3cccnc3c2O)CC1 (stereo not drawn): > 66 µM (inactive)
5. O=C(CSc1nnc(CNC(=O)c2ccccc2F)o1)Nc1ccc2c(c1)OCCO2: > 66 µM (inactive)
6. CC(=O)c1cc(O)c2ccccc2c1O: > 66 µM (inactive)
7. COc1ccc(/C=c2\sc3nc(-c4ccccc4OC)nn3c2=O)c(OC)c1: 48.3 µM (inactive)
8. CN1C(=O)SC(Nc2ccccc2C(=O)O)C1=O (stereo not drawn): > 66 µM (inactive)

###

- SYSTEM_NAME: Aminopeptidase N (Plasmodium falciparum FcB1/Columbia)
- Sequence (O96935 whole entry): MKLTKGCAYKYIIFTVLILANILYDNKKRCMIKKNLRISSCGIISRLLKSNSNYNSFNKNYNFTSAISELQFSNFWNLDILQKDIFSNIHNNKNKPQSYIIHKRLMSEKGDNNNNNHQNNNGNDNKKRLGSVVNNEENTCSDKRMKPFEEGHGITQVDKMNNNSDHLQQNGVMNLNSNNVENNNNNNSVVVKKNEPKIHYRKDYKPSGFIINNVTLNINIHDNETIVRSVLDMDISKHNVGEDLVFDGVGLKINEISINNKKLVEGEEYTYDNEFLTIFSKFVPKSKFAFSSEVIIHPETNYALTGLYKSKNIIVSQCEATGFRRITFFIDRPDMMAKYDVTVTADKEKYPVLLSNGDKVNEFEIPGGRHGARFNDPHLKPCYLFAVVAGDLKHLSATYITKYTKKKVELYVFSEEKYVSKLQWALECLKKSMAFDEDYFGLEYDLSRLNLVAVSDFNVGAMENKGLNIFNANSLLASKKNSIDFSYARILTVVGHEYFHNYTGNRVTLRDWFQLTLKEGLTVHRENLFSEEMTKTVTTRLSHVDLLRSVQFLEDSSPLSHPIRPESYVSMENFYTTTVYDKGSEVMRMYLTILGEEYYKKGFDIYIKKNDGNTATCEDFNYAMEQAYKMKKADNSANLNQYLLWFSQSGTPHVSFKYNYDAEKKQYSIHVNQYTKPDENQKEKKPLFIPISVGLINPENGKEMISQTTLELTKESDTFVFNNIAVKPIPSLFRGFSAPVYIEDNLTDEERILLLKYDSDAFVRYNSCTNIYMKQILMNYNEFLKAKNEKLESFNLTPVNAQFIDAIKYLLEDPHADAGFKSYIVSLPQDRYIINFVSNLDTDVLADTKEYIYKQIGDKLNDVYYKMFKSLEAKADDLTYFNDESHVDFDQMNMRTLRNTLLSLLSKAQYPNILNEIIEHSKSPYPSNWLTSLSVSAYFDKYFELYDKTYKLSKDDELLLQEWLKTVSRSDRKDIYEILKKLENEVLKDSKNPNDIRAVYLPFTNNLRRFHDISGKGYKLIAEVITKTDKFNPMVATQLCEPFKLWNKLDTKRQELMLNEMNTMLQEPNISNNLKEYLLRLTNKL
- METHOD_NOTES: P. falciparum M1AAP inhibitors, biochemical, fluorogenic H-Leu-NHMec substrate, 1536-well (AID 1445)
- Design: species or system Plasmodium falciparum 3D7, 3D7
Calls of active or inactive are those of the source.
READOUT_NAME: IC50

1) CCOc1cc(/C=C2\SC(=S)N(C(C(=O)O)c3ccccc3)C2=O)ccc1O (centres undefined): 31.8 µM (active)
2) Nc1nc2nc(-c3cccs3)cc(C(F)(F)F)n2n1: 61.4 µM (active)
3) CN(C)C=O.Cc1ccc(-c2cc(-c3nnc(S)o3)c3ccccc3n2)cc1: 35.5 µM (active)
4) O=C(O)c1cc(-c2ccc(/C=N/Nc3ccc([N+](=O)[O-])cn3)o2)ccc1Cl: 12.7 µM (active)

###

- SYSTEM_NAME: Leucine aminopeptidase (Plasmodium falciparum 3D7)
- Sequence (Q8IL11 whole entry): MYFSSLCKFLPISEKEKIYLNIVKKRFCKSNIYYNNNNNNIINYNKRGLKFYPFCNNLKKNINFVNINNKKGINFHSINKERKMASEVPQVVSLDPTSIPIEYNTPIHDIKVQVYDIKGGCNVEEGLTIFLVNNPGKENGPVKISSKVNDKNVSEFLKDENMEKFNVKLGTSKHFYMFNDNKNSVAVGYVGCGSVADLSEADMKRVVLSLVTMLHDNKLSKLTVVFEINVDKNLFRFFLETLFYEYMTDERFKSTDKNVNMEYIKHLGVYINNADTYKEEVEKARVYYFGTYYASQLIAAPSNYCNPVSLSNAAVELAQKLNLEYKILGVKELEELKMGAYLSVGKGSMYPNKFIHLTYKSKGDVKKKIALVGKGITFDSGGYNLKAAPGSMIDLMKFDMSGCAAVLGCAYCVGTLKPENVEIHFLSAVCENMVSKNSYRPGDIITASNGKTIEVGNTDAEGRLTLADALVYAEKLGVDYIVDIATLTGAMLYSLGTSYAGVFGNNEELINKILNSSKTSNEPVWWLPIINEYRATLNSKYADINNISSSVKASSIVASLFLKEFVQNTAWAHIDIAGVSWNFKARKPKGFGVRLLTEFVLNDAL
- METHOD_NOTES: P. falciparum M17LAP inhibitors, primary screen, biochemical, fluorogenic H-Leu-NHMec substrate, 1536-well (AID 1619)
- Format: functional
Active and inactive are the calls of the source.
This section presents compounds with their documented IC50 values.
READOUT_NAME: IC50

1. O=C(Cn1cnc2ccccc2c1=O)Nc1ccc2c(c1)CCC2: 5.23 µM (active)
2. Nc1[nH]nc2nc(N3CCOCC3)nc(-c3ccccc3)c12: 6.77 µM (active)
3. Cc1cc(C(=O)COC(=O)c2cccnc2O)c(C)n1-c1ccccc1: 2.67 µM (active)
4. CC(=O)NNC(=S)NC(=O)c1cccc([N+](=O)[O-])c1: 45.8 µM (active)
5. CC(C)[C@H](NC(=O)Nc1ccc(Oc2ccccc2)cc1)C(=O)O: 15.7 µM (active)
6. O=C(Nc1nc(=O)n(C(=O)C2CC2)s1)c1ccccc1: 40.7 µM (active)

###

- System: Streptococcus sp. 'group A'
- METHOD_NOTES: growth inhibition of control SK(-) GAS strain, dose response, counter-screen for streptokinase expression inhibitor project, luminescence, kanamycin, BacTiterGlo, confirmation (AID 1900)
- Assay type: functional, organism-based
Active and inactive are the calls of the source.
This section presents compounds with their documented EC50 values.
READOUT_NAME: EC50

1) Cc1cc(C)nc(NC(=N)NCCc2c[nH]c3ccccc23)n1: 7.95 µM (active)
2) O=C1CCCc2oc3c(cc(NS(=O)(=O)c4ccc5c6c(cccc46)C(=O)N5)c4ccccc43)c21: 3.82 µM (active)
3) O=C(NNC(=S)NC(=O)c1ccccc1)c1cccc([N+](=O)[O-])c1: 3.85 µM (active)
4) CC(C)[C@H](NC(=O)N1CC(=O)Nc2ccccc21)C(=O)N[C@@H](Cc1ccccc1)C(=O)O: > 150 µM (not active)
5) Cc1sc2nc(-c3ccccn3)nc(O)c2c1-c1ccccc1: 1.25 µM (active)
6) CCOC(=O)c1c(N)sc(C(O)(C(F)(F)F)C(F)(F)F)c1-c1ccc(Cl)cc1: 1.96 µM (active)
7) CC(=O)c1c(O)cc(O)c(C(C)=O)c1O: 3.9 µM (active)
8) CCn1cc(C(=O)O)c(=O)c2cc(F)c(N3CCN(S(=O)(=O)c4ccc5c(c4)OCCO5)CC3)cc21: 2.84 µM (active)
9) CCCCCCCCCCOC(=O)C[n+]1c(COc2ccccc2OC)n(C)c2ccccc21: 6.69 µM (active)
10) O=C1C2C(c3ccccc3)=NN(c3ccccc3)C2C(=O)N1c1ccccc1 (configuration not stated): 1.02 µM (active)
11) COc1ccc(-n2c(/C=C/c3ccc(O)c(OC)c3)nc3ccccc3c2=O)cc1: 22 µM (active)
12) O=C(NNC1=Nc2ccccc2SC1)c1ccc(F)cc1: 3.72 µM (active)

Reference source: ChEMBL document CHEMBL1201862
